- Test system: MRGPRX2 (Homo sapiens, UniProt Q96LB1)
- Protocol details: MRGPRX2 IP1 HTRF assay
- Type: cell-based
- Parameters: host or cells: CHO-K1
- Recorded conditions: CHO-K1 cells stably expressing human MRGPRX2; IP1 accumulation; agonist Cortistatin 14 1 μM
pIC50: −log10 of the molar value.
Result type: pIC50

Below, each entry is followed by its recorded pIC50 result.
- Cn1cnc2ccnc(N[C@@H]3CCC[C@H](Nc4cc(C(F)(F)F)nc5ccc(Cl)cc45)C3)c21 [Example 4]: 7.00 to 10.00
- Cn1cnc2ccnc(N[C@@H]3CCC[C@H](Nc4cc(C(F)(F)F)nc5ccc(Br)cc45)C3)c21 [Example 16]: 7.00 to 10.00
- FC(F)(F)c1cc(N[C@H]2CCC[C@@H](Nc3nccc4cnccc34)C2)c2cc(Cl)ccc2n1 [Example 6]: 6.00 to 7.00
- FC(F)(F)c1cc(N[C@H]2CCC[C@@H](Nc3ncnc4ncccc34)C2)c2cc(Cl)ccc2n1 [Example 26]: 7.00 to 10.00
- Cn1ncc2c(N[C@@H]3CCC[C@H](Nc4cc(C(F)(F)F)nc5ccc(Cl)cc45)C3)nccc21 [Example 19]: 7.00 to 10.00

**Query** Look up pIC50 for this compound: FC(F)(F)c1cc(N[C@H]2CCC[C@@H](Nc3nnc4n3CCC4)C2)c2cc(Cl)ccc2n1 [Example 34]
**Result** 6.00 to 7.00

**Query** Moving on to FC(F)(F)c1cc(N[C@H]2CCC[C@@H](Nc3cc(N4CCOCC4)ccn3)C2)c2cc(Cl)ccc2n1 [Example 3]
**Result** 6.00 to 7.00

**Query** Moving on to FC(F)(F)c1cc(N[C@H]2CCC[C@@H](Nc3nccn4cncc34)C2)c2cc(Br)ccc2n1 [Example 29]
**Result** 7.00 to 10.00

**Query** Moving on to Cn1cnc2ccnc(N[C@H]3CC[C@@H](Nc4cc(C(F)(F)F)nc5ccccc45)CC3)c21 [Example 22]
**Result** 6.00 to 7.00

**Query** Moving on to Cn1c(C#N)cnc1N[C@@H]1CCC[C@H](Nc2cc(C(F)(F)F)nc3ccc(Cl)cc23)C1 [Example 20]
**Result** 7.00 to 10.00

**Query** Moving on to FC(F)(F)c1cc(N[C@H]2CCC[C@@H](Nc3nccn4cncc34)C2)c2cc(Cl)ccc2n1 [Example 9]
**Result** 7.00 to 10.00

**Query** Moving on to Fc1ccc2nc(C(F)(F)F)cc(N[C@H]3CCC[C@@H](Nc4nccc5ncccc45)C3)c2c1 [Example 25]
**Result** 7.00 to 10.00

----------
IC50 values for the compounds below.
- Test system: MRGPRX2 (Homo sapiens, UniProt Q96LB1)
- Protocol details: MRGPRX2 IP1 HTRF assay
- Assay type: cell-based
- Set-up: host or cells: CHO-K1
- Recorded conditions: CHO-K1 cells stably expressing human MRGPRX2; IP1 accumulation; agonist Cortistatin 14 1 μM

Below, each entry is followed by its recorded IC50 result.
* Cn1cc2c(N[C@@H]3CCC[C@H](Nc4cc(C(F)(F)F)nc5ccc(Cl)cc45)C3)nccc2n1 [Example 1] | 0.1 to 1 µM
* FC(F)(F)c1cc(N[C@H]2CCC[C@@H](Nc3ccnc4ncccc34)C2)c2cc(Cl)ccc2n1 [Example 27] | 0.1 to 1 µM
* Cn1ncc2c(N[C@@H]3CCC[C@H](Nc4cc(C(F)(F)F)nc5ccc(Cl)cc45)C3)ncnc21 [Example 31] | 0.0001 to 0.1 µM
* FC(F)(F)c1cc(N[C@H]2CC[C@@H](Nc3nccc4ncccc34)CC2)c2cc(Cl)ccc2n1 [Example 13] | 0.0001 to 0.1 µM
* Cn1cnc2ccnc(N[C@H]3CC[C@@H](Nc4cc(C(F)(F)F)nc5ccc(Cl)cc45)CC3)c21 [Example 7] | 0.0001 to 0.1 µM
* FC(F)(F)c1cc(N[C@H]2CCC[C@@H](Nc3nccc4ncccc34)C2)c2cc(Cl)ccc2n1 [Example 5] | 0.0001 to 0.1 µM

// switching to the query compound
**Query** Look up IC50 for this compound: FC(F)(F)c1cc(N[C@H]2CCC[C@@H](Nc3ccccn3)C2)c2cc(Cl)ccc2n1 [Example 12]
**Result** 0.1 to 1 µM

----------
- Test system: MRGPRX2 (Homo sapiens)
- Sequence (Q96LB1 1-330): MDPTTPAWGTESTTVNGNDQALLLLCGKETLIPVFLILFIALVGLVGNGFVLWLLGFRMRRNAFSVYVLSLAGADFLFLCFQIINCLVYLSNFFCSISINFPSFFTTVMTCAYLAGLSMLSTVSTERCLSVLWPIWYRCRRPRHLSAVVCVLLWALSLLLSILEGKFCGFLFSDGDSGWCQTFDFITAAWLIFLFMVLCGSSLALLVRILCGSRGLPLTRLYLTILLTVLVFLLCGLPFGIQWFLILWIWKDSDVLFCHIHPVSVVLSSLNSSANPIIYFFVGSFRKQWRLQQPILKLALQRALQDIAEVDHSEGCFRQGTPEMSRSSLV
- Protocol details: MRGPRX2 FLIPR calcium mobilization assay
- Format: cell-based
- Set-up: host or cells: CHO-K1
- Recorded conditions: CHO-K1 cells stably expressing human MRGPRX2; Ca2+ release; agonist Cortistatin-14 at EC80
Result type: IC50

Below, each entry is followed by its recorded IC50 result.
* Cn1ncc2c(N[C@@H]3CCC[C@H](Nc4cc(C(F)(F)F)nc5ccc(Cl)cc45)C3)ncnc21 | 0.1 to 100 nM
* Cn1cnc2ccnc(N[C@H]3CC[C@@H](Nc4cc(C(F)(F)F)nc5ccccc45)CC3)c21 | 0.1 to 100 nM
* FC(F)(F)c1cc(N[C@H]2CCC[C@@H](Nc3nccc4ncccc34)C2)c2cc(Cl)ccc2n1 | 0.1 to 100 nM
* Cn1cnc2ccnc(N[C@@H]3CCC[C@H](Nc4cc(C(F)(F)F)nc5ccc(Br)cc45)C3)c21 | 0.1 to 100 nM
* FC(F)(F)c1cc(N[C@H]2CCC[C@@H](Nc3nnc4n3CCOC4)C2)c2cc(Cl)ccc2n1 | 0.1 to 100 nM

// switching to the query molecule
**Query** Look up IC50 for this molecule: FC(F)(F)c1cc(N[C@H]2CCC[C@@H](Nc3cc(N4CCOCC4)ccn3)C2)c2cc(Cl)ccc2n1
**Result** 100 to 1000 nM

----------
- Test system: MRGPRX2 (Homo sapiens, UniProt Q96LB1)
- Protocol details: MRGPRX2 IP1 HTRF assay
- Type: cell-based
- Parameters: host or cells: CHO-K1
- Recorded conditions: CHO-K1 cells stably expressing human MRGPRX2; IP1 accumulation; agonist Cortistatin 14 1 μM
Result type: IC50

Below, each entry is followed by its recorded IC50 result.
* Cn1cnc2ccnc(N[C@@H]3CCC[C@H](Nc4cc(C(F)(F)F)nc5ccc(F)cc45)C3)c21 [Example 14] | 0.0001 to 0.1 µM
* FC(F)(F)c1cc(N[C@H]2CCC[C@@H](Nc3nnc4ccccn34)C2)c2cc(Cl)ccc2n1 [Example 24] | 0.0001 to 0.1 µM
* FC(F)(F)c1cc(N[C@H]2CCC[C@@H](Nc3nnc4n3CCOC4)C2)c2cc(Cl)ccc2n1 [Example 36] | 0.0001 to 0.1 µM

// switching to the query molecule
**Query** Look up IC50 for this molecule: Cn1ncc2ccnc(N[C@@H]3CCC[C@H](Nc4cc(C(F)(F)F)nc5ccc(Cl)cc45)C3)c21 [Example 2]
**Result** 0.1 to 1 µM

----------
- Test system: MRGPRX2 (Homo sapiens, UniProt Q96LB1)
- Sequence (Q96LB1 1-330): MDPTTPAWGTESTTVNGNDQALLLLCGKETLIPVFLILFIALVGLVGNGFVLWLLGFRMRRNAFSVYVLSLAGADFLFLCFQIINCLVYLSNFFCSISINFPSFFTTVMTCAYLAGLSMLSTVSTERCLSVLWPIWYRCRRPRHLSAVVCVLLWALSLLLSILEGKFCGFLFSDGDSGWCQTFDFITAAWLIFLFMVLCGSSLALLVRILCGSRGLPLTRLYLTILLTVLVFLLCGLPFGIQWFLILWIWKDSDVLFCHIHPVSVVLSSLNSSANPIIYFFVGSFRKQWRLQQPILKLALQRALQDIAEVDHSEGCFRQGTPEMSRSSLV
- Protocol details: MRGPRX2 IP1 HTRF assay
- Type: cell-based
- Parameters: host or cells: CHO-K1
- Recorded conditions: CHO-K1 cells stably expressing human MRGPRX2; IP1 accumulation; agonist Cortistatin 14 1 μM
- Experimental: This assay measures compound inhibition of myo-Inositol 1 phosphate (IP1) accumulation in CHO-K1 cells. Chinese hamster ovary (CHO-K1) cells stably expressing human MRGPRX2 were purchased from GenScript (Piscataway, NJ). For the HTRF IP1 determination, an IP-One GqKit (Perkin Elmer Cisbio, Waltham, MA), which includes all reagents and buffers in this protocol, was used. […] The IP1 concentrations were calculated from a standard curve following the IP-One GQ kit instructions. […]
pIC50: −log10 of the molar value.
Result type: pIC50

Below, each entry is followed by its recorded pIC50 result.
* FC(F)(F)c1cc(N[C@H]2CCC[C@@H](Nc3nnc4n3CCCC4)C2)c2cc(Cl)ccc2n1 [Example 35] | 7.00 to 10.00
* FC(F)(F)c1cc(N[C@H]2CCC[C@@H](Nc3nccn4nccc34)C2)c2cc(Cl)ccc2n1 [Example 30] | 7.00 to 10.00

// switching to the query compound
**Query** Look up pIC50 for this compound: Cn1c(N[C@@H]2CCC[C@H](Nc3cc(C(F)(F)F)nc4ccc(Cl)cc34)C2)nc2cnccc21 [Example 32]
**Result** 7.00 to 10.00
